target: human TLR7 (Homo sapiens, UniProt Q9NYK1); construct: host or cells: HEK293 (HEK-Blue hTLR7); assay: HEK293-Blue hTLR7 Reporter Assay (QUANTI-BLUE, SEAP readout); type: cell-based; conditions: HEK-Blue-hTLR7 cells, 24 hrs treatment, Table 1, B1-B232
Sequence (Q9NYK1 27-1049): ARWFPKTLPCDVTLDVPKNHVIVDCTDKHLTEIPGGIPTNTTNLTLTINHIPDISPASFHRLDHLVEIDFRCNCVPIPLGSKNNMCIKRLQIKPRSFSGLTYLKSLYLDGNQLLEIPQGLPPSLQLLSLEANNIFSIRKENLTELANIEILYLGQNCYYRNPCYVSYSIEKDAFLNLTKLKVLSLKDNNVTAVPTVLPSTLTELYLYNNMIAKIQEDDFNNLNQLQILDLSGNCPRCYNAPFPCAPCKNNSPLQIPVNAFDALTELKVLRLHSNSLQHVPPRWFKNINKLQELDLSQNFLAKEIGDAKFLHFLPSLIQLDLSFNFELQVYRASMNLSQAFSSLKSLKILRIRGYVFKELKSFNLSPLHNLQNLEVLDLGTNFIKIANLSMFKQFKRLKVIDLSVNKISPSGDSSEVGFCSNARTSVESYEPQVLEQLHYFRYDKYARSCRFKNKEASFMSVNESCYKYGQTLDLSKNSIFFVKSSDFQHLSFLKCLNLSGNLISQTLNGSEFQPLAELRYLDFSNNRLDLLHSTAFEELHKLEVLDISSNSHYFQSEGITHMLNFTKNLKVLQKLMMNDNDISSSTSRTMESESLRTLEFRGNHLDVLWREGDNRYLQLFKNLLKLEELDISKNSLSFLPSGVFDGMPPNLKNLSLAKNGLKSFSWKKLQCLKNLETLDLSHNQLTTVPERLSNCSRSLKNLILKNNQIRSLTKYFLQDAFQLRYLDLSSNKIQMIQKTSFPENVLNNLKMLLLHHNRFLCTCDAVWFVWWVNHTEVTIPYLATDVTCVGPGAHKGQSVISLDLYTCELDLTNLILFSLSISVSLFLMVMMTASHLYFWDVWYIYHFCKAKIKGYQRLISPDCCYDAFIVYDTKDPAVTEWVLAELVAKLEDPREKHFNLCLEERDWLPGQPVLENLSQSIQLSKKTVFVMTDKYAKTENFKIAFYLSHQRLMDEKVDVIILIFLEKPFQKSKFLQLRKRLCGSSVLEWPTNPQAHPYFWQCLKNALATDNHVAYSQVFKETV
metric: EC50 (nM)
Report only the number, with the unit nM understood.

Consider the worked cases shown below.
Problem: Param item = CCCCOc1nc(N)c2ncc(Cc3cnc(N4CCN(CC(=O)N(C)C)CC4)c(C)c3)n2n1 [Compound B72] ; retrieve measured EC50.
Result: 493

Problem: Fill blank: measured EC50 of the compound CCCCOc1nc(N)c2ncc(Cc3cnc(N4CCC(N)CC4)c(C)c3)n2n1 [Compound B60] is ____.
Result: 50

Problem: Bench note: what EC50 did CNCC(C)Oc1nc(N)c2ncc(Cc3cnc(N4CCNCC4)c(C)c3)n2n1 (centres unmarked) [Compound B206] show?
Result: 5610

Problem: Look up EC50: CCC[C@@H](CCO)Nc1nc(N)c2ncc(Cc3cnc(N4CCNCC4)c(C)c3)n2n1 [Compound B226]
Result: 46

Proceed to the following item.
Problem: Field request: EC50 | item: CCCCOc1nc(N)c2ncc(Cc3cnc(N4CCNCC4)c(Cl)c3)n2n1 [Compound B2]
Result: 434
